# measured_on: corticotropin releasing factor 1 receptor
# method_summary: cell-based or functional assay
Ends that are not written are not given here.
measured_property: CRF1R EC50

{"binder": "IVLSLDVPIGLLQILLEQRAAREQATTNARILARV-NH2 [SEQ ID NO 136]", "measured_property": "CRF1R EC50", "value_observed": "> 100 nM"}
{"binder": "IVLSLDVPIGLLQEVLEMARAEQLAQQAHSNRKLMEII-NH2 [SEQ ID NO 165]", "measured_property": "CRF1R EC50", "value_observed": "> 100 nM"}
{"binder": "ZGPPISIDLPRYLLRKMIEIEKQEKEKQQAANNRLLLDTI (C-terminal amide) [SEQ ID NO 65]", "measured_property": "CRF1R EC50", "value_observed": "> 100 nM"}
